Biological target: human C5 protein (human, UniProt P01031 19-673; P01031 678-1676)
Assay: cell-based or functional assay
Positions of bridges follow the written chain, without caps; N, C: chain ends. Non-standard residues stand in square brackets, D forms with d. No end group written: not given here. *: point of attachment. m‑xylyl = bridging moiety between the two residues given in brackets; Trp(7-aza) = N[C@@H](Cc1c[nH]c2ncccc12)C(=O)O; Palmitoyl = CCCCCCCCCCCCCCCC(=O)*; NMeD = CN[C@@H](CC(=O)O)C(=O)O; Chg = N[C@H](C(=O)O)C1CCCCC1; Phg = N[C@H](C(=O)O)c1ccccc1; Tle = CC(C)(C)[C@H](N)C(=O)O; Mpa = O=C(O)CCS
Parameter: Avg. IC50, hemolysis assay with C5 depleted sera. Scope: all listed entries.
In your response, the unit should come after the numeric value.

binder	obs.value
Ac-CAERFCD[Tle]Y[Trp(7-aza)]EYP[Phg]K(Palmitoyl) (linker 1-6 via m‑xylyl) [R3189]	81.5 nM

Shift focus to the following entry.
What does the data say about its Avg. IC50, hemolysis assay with C5 depleted sera? Entry: [Mpa][dA]ERFC[NMeD][Tle]Y[Trp(7-aza)]EYP[Chg]K(Palmitoyl) (bridge 1-6; also: cyclo(1,6) between Cys1 and Cys6, ring kind not given here) [R3199]
112 nM

From: patent US20210283212A1
